Sourced from patent US11415579B2

Would you mind telling me the reported Rate constant with Cdk2 S276C of each entry?
ASSAY SYSTEM: Cdk2(S276C) (C177A) (Homo sapiens, UniProt P24941, C177A/S276C)
Construct: poly-histidine; made in house; host or cells: E. coli
PROCEDURE TEXT: Kinetic thiol consumption assay with Cdk2 mutant S276C
Format: binding
TEST PARAMETERS: Protein: Cdk2; cysteine position S276C; additional mutation C177A; in h^-1
Protocol: To wells containing 150 μL thiol (Cdk2 or model thiol) (5 μM) in degassed phosphate buffer (pH 8) was added immobilized TCEP beads (2% v/v). After incubation of the fluorescence plates for 1 hour at room temperature, fluorescence measurements (excitation/emission of 380/470 nm) were taken on a PerkinElmer EnVision multilabel plate reader and processed with EnVision Workstation version 1.12. Fluorescence measurements were normalized against a DMSO/thiol only control and plotted against time. […]
Enter a number only.

Quick one: Rate constant with Cdk2 S276C for C=CC(=O)N(CCCN1CCOCC1)Cc1ccncc1 [CA-192] ? 0.001086

Quick one: Rate constant with Cdk2 S276C for C=CC(=O)N1CCOC2(CCCCC2)C1 [CA-193] ? 0.03841

Quick one: Rate constant with Cdk2 S276C for C=CC(=O)NCc1ccc(OC)cc1 [BN-63] ? 0.0008064

Quick one: Rate constant with Cdk2 S276C for C=CC(=O)Nc1ccc(C23CC4CC(CC(O)(C4)C2)C3)cc1 [CA-194] ? 0.003434

Quick one: Rate constant with Cdk2 S276C for C=CC(=O)N1CCN(c2cc(N3CCOCC3)ncn2)CC1 [CA-179] ? 0.007953

Quick one: Rate constant with Cdk2 S276C for C=CC(=O)NC1(c2noc(C3CC3)n2)CCCC1 [CA-044] ? 0.0009087

Quick one: Rate constant with Cdk2 S276C for C=CC(=O)N(C1CC1)C1CCCCC1C1CCCCC1 (stereo not shown) [CA-081/240] ? 0.01732

Quick one: Rate constant with Cdk2 S276C for C=CC(=O)N1CC(n2cccn2)C1 [CA-173] ? 0.01857

Quick one: Rate constant with Cdk2 S276C for C=CC(=O)NCCc1c[nH]c2ccccc12 [EL-1174] ? 0.003008

Quick one: Rate constant with Cdk2 S276C for C=CC(=O)N1CCc2sccc2C1c1cccs1 (stereo not shown) [CA-056] ? 0.03094

Quick one: Rate constant with Cdk2 S276C for O=C(CCl)N1CCSc2ccccc21 [EN004] ? 1.689

Quick one: Rate constant with Cdk2 S276C for C=CC(=O)NC1(C2CC2)CC1 [CA-047] ? 0.006721

Quick one: Rate constant with Cdk2 S276C for C=CC(=O)Nc1sc2c(c1C(=O)NC1CC1)CCC2 [CA-155] ? 0.1839

Quick one: Rate constant with Cdk2 S276C for C=CC(=O)N1CCCc2sccc2C1 [CA-034] ? 0.0502

Quick one: Rate constant with Cdk2 S276C for C=CC(=O)N1CCn2c(Cc3ccccc3)nnc2C1 [CA-092] ? 0.5455

Quick one: Rate constant with Cdk2 S276C for C=CC(=O)N1CC2CN(Cc3ccccc3)CC2C1 (stereo not shown) [CA-207] ? 0.00287

====

ASSAY SYSTEM: human cyclin-dependent kinase 2 (Cdk2) (Homo sapiens)
Construct: poly-histidine; made in house; host or cells: E. coli
PROCEDURE TEXT: Kinetic thiol consumption assay with wild type Cdk2 (C177)
Assay type: binding
TEST PARAMETERS: model thiol glutathione
Would you mind telling me the reported k(Cdk2)/k(GSH) rate enhancement of each entry?
Enter a number only.

// fetch human cyclin-dependent kinase 2 (Cdk2) (Homo sapiens) k(Cdk2)/k(GSH) rate enhancement for C#CCN1CCCN(C(=O)C=C)CC1 [CA-196] 1.021

// fetch human cyclin-dependent kinase 2 (Cdk2) (Homo sapiens) k(Cdk2)/k(GSH) rate enhancement for C=CC(=O)NCC1CCCN1S(=O)(=O)c1ccc(C)cc1 (centres unmarked) [CA-118] 2.491

// fetch human cyclin-dependent kinase 2 (Cdk2) (Homo sapiens) k(Cdk2)/k(GSH) rate enhancement for C=CC(=O)NC(C)c1cc(OC)c(OC)c(OC)c1 (centres unmarked) [EL-1101] 0.4373

// fetch human cyclin-dependent kinase 2 (Cdk2) (Homo sapiens) k(Cdk2)/k(GSH) rate enhancement for C=CC(=O)N1C(=O)CC(c2ccccc2)N(C(=O)C=C)c2ccccc21 (centres unmarked) [CA-165-1] 0.8877

// fetch human cyclin-dependent kinase 2 (Cdk2) (Homo sapiens) k(Cdk2)/k(GSH) rate enhancement for C=CC(=O)N1CCCN(Cc2noc(C3CC3)n2)CC1 [CA-079] 0.9328

// fetch human cyclin-dependent kinase 2 (Cdk2) (Homo sapiens) k(Cdk2)/k(GSH) rate enhancement for C=CC(=O)N(C1CC1)C1CCCCC1C1CCCCC1 (centres unmarked) [CA-081] 5.108

// fetch human cyclin-dependent kinase 2 (Cdk2) (Homo sapiens) k(Cdk2)/k(GSH) rate enhancement for C=CC(=O)NCCc1c(-c2ccccn2)[nH]c2ccc(F)cc12 [EL-1084] 1.101

// fetch human cyclin-dependent kinase 2 (Cdk2) (Homo sapiens) k(Cdk2)/k(GSH) rate enhancement for C=CC(=O)N1CCc2sccc2C1c1cccs1 (centres unmarked) [CA-056] 1.152

// fetch human cyclin-dependent kinase 2 (Cdk2) (Homo sapiens) k(Cdk2)/k(GSH) rate enhancement for C=CC(=O)N1CCN(c2cc(N3CCOCC3)ncn2)CC1 [CA-179] 1.112

// fetch human cyclin-dependent kinase 2 (Cdk2) (Homo sapiens) k(Cdk2)/k(GSH) rate enhancement for C=CC(=O)N1CCCc2sccc2C1 [CA-034] 2.056

// fetch human cyclin-dependent kinase 2 (Cdk2) (Homo sapiens) k(Cdk2)/k(GSH) rate enhancement for C=CC(=O)NC(Cc1ccccc1)C(O)CF (centres unmarked) [EL-1164] 0.4934

====

ASSAY SYSTEM: Cdk2(C177A, F80C) (Homo sapiens, UniProt P24941, C177A/F80C)
Construct: poly-histidine; made in house; host or cells: E. coli
PROCEDURE TEXT: Kinetic thiol consumption assay with Cdk2 mutant F80C, incl. kobs versus concentration (Kd, k2)
Type: binding
Parameters: key: Cdk2 rate constant divided by model-thiol rate constant
TEST PARAMETERS: Cdk2 F80C, additional mutation C177A
The recorded Rate enhancement, Cdk2 F80C of each item maps onto one of these classes: LOW: < 0.3; MID: ≥ 0.3 and < 1; HIGH: ≥ 1

Band of C=CC(=O)N(C)C1C2CCOC2C1(C)C (stereo not drawn) [CA-182] ? LOW

Band of CC1CN(C(=O)CCl)CC(C)O1 (stereo not drawn) [EN012] ? LOW

Band of C=CC(=O)N1CC(n2cccn2)C1 [CA-173] ? MID

Band of C=CC(=O)N1CC(OCCN(CC)CC)C1 [CA-145] ? LOW

Band of C=CC(=O)NCC1(NC(=O)OC(C)(C)C)CCCCC1 [EL-1143] ? HIGH

Band of C=CC(=O)Nc1ccc(C(=O)c2ccccc2)cc1 [CA-219] ? HIGH

Band of C=CC(=O)NCC1CCCN1S(=O)(=O)c1ccc(C(=O)O)cc1 (stereo not drawn) [BN122] ? MID

Band of C=CC(=O)Nc1ccccc1C(=O)c1ccccc1 [EL-1004] ? HIGH

Band of C=CC(=O)N1CCC2(CCCCCC2)C1 [CA-093] ? HIGH

Band of C=CC(=O)N(CCCN1CCOCC1)Cc1ccncc1 [CA-192] ? LOW

Band of FC(F)(F)c1cc(Cl)ncc1Br [EN008] ? HIGH

Band of C=CC(=O)NC(C)c1ccc2c(c1)OCO2 (stereo not drawn) [EL-1051] ? LOW

Band of C=CC(=O)N1CCN(C(=O)OC(C)(C)C)c2ccccc21 [EL-1157] ? MID

Band of C=CC(=O)NC1CC(NC(=O)C2CCC2)C1 (stereo not drawn) [CA-202] ? LOW

Band of C=CC(=O)Nc1cccc(C(F)(F)F)c1 [BN-80] ? HIGH

Band of C=CC(=O)Nc1[nH]nc(C2CC2)c1-c1ccc2c(c1)OCO2 [CA-041] ? LOW

Band of C=CC(=O)NCc1ccc(F)cc1 [BN-62] ? MID

Band of C=CC(=O)N1CCC2(CC1)NC(=O)C1(CCCCC1)N2 [CA-129/235] ? LOW

Band of C=CC(=O)N1CCN(c2ccccc2C(N)=O)CC1 [EL-1155] ? MID

Band of C=CC(=O)Nc1cccc2ncccc12 [CA-012] ? HIGH

Band of C=CC(=O)N1CCN(C(=O)OCC)CC1c1cccs1 (stereo not drawn) [EL-1121] ? MID

Band of C=CC(=O)N1CCCC1c1ccc(OC)cc1 (stereo not drawn) [EL-1062] ? HIGH

Band of C=CC(=O)N1CC(OCc2cccc3ccccc23)C1 [CA-203] ? HIGH

Band of C=CC(=O)Nc1ccc2nc(C)[nH]c2c1 [EL-1109] ? HIGH
